B1: glmS ribozyme (parent)
chain: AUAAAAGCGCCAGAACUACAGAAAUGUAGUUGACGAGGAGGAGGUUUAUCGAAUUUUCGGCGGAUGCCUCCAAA

Variants of: B1
Assay: self-cleavage kobs at 2500 uM GlcN6P; higher = faster cleavage; RNA array
Conditions: with glucosamine-6-phosphate
Variants at the floor of the assay were thinned out.
PROPERTY MEASURED: self-cleavage kobs at 2500 uM GlcN6P (s⁻¹)

SEQUENCE CHANGE	PROPERTY MEASURED	RESULT OPERATOR	QUANTITATIVE RESULT
C16U G32A	self-cleavage kobs at 2500 uM GlcN6P	=	0.00201
A14G A36U C68A	self-cleavage kobs at 2500 uM GlcN6P	=	0.00425
A33C G35A G41A	self-cleavage kobs at 2500 uM GlcN6P	<	1e-05
G37U U57C	self-cleavage kobs at 2500 uM GlcN6P	<	1e-05
C8G A15G C16U U45G U49A	self-cleavage kobs at 2500 uM GlcN6P	<	1e-05
A14G C68G	self-cleavage kobs at 2500 uM GlcN6P	=	0.000181
G7C G51U A53U G60U	self-cleavage kobs at 2500 uM GlcN6P	<	1e-05
G29U G35U C70U	self-cleavage kobs at 2500 uM GlcN6P	<	1e-05
G43U A64G	self-cleavage kobs at 2500 uM GlcN6P	=	3.85e-05
A15G C58A C70U	self-cleavage kobs at 2500 uM GlcN6P	=	0.000182
C11G A12C	self-cleavage kobs at 2500 uM GlcN6P	=	6.61e-05

Value source: the supplement of paper PMC7125110
